Tested on: B. microti
experimental-protocol: Growth inhibition of Babesia microti by in vitro culture
Type: cell-based
study-conditions: in vitro culture, 72 h, parasitemia by Giemsa staining; read-out: IC50 B. microti
pIC50: −log10 of the molar value.
measured-attribute: pIC50

smi=CC1=C(CSC(=S)N2CCCCC2)C(=O)c2ccccc2C1=O assay_result=5.94

====

target-of-assay: rBmPYKI (Babesia microti, UniProt A0A1N6LXR4)
Sequence (A0A1N6LXR4 1-489): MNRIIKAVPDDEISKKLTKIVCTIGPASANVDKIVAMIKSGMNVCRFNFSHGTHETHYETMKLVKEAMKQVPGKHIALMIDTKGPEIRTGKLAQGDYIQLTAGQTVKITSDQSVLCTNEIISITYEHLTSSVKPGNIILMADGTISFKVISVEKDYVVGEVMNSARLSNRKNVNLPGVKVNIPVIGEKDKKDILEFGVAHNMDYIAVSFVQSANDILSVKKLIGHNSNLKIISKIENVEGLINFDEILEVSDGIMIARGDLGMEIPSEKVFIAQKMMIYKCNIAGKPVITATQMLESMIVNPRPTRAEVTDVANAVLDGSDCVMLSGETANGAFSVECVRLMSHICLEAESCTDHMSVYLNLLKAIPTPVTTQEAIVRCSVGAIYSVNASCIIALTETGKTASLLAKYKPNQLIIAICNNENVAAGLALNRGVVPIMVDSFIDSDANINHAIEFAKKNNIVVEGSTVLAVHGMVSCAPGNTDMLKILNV
experimental-protocol: biochemical
Format: biochemical
measured-attribute: effect on the activity of rBmPYKI

compound="CC1=C(CSC(=S)N2CCCCC2)C(=O)c2ccccc2C1=O [PKM2 inhibitor]" assay_result="significantly inhibit"
compound="O=c1cc(-c2ccc(O)cc2)oc2cc(O)cc(O)c12 [Apigenin]" assay_result="significantly inhibit"
compound="CC(C)=CCC1=C(O)C(=O)c2ccccc2C1=O [Lapachol]" assay_result="no effect"
compound="CCc1ccc(CCOc2ccc(CC3SC(=O)NC3=O)cc2)nc1 (stereo not drawn) [Pioglitazone]" assay_result="significantly inhibit"
compound="O=c1cc(-c2ccccc2)oc2ccccc12 [Flavone]" assay_result="no effect"
compound="CC(C)=CC[C@@H](O)C1=CC(=O)c2c(O)ccc(O)c2C1=O [Shikonin]" assay_result="significantly inhibit"

Every entry's value here was drawn from paper PMC8481833.
